Cited source: patent US20260151519A1

Overview of reported pKi across a group of binders:
Target: T1, Human Nectin-4 expressed on cells (human, UniProt Q96NY8 32-510)
T1 construct: Endogenous on HT-1376 cells; also called endogenous Nectin-4 on HT-1376 cells; cell surface Nectin-4
T1 sequence: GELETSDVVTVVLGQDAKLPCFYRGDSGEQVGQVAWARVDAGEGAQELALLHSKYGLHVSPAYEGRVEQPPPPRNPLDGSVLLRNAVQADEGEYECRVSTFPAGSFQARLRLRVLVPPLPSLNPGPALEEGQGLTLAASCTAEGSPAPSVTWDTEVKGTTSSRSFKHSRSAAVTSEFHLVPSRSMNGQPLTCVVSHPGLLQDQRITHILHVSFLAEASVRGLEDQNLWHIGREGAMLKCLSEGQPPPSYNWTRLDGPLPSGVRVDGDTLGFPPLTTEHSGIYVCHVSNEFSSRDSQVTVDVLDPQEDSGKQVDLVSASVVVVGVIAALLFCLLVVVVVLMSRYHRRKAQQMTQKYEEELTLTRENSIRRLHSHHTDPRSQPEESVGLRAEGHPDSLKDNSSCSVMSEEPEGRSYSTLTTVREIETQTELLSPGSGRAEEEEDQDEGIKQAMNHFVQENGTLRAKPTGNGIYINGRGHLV
Assay: DELFIA whole-cell competition against a europium-chelate miniprotein
Bridges are numbered along the chain shown (N, C = ends). Primed or numbered codes have the meaning given here. Where no end group is shown, it is not given here. [ ]: non-standard residue; d: D form. The star is where a group is joined. Biotin = O=C1N[C@H]2[C@H](CS[C@H]2CCCCC(=O)*)N1; Lys(Me3) = C[N+](C)(C)CCCC[C@H](N)C(=O)O; Arg(Me2s) = CN=C(NC)NCCC[C@H](N)C(=O)O; PEG4″ = 4(ethylene glycol)
# reply with the number alone; pKi is -log10 of concentration in mol/L

Below: 4 binders and their reported pKi.
binder: {Biotin-PEG4″}-CEYDEQFFTALARLRGGDICEYIQA[Arg(Me2s)]FQYLPGLCIEEILDNLGCS (designed binder, disulfide 1-34, 20-44) [C267]
readout.type: pKi
numeric.result: 9.12
--
binder: {Biotin-PEG4″}-CEYDEEFFTALARLRGADICQYIQA[Lys(Me3)]FQYLPALCIEEILDNLGCS-OH (designed binder, disulfide 1-34, 20-44) [C252]
readout.type: pKi
numeric.result: 9.12
--
binder: {Biotin-PEG4″}-CEYDEQFFTALARLRGADICEYIQARFQYLPGLCIEEILDNLGCS-OH (designed binder, disulfide 1-34, 20-44) [C280]
readout.type: pKi
numeric.result: 9.27
--
binder: {Biotin-PEG4″}-CEYDEQFFTALARLRGGDICEYIQARFQYLPGLCIEEILDNLGCS (designed binder, disulfide 1-34, 20-44) [C264]
readout.type: pKi
numeric.result: 9.28

Enquiry: So what does the record say about pKi for {Biotin-PEG4″}-CDYDEQFFTALKRLRGGDICEYIQA[Lys(Me3)]FQYLPGECIEEILDNLGCS-OH (designed binder, disulfide 1-34, 20-44) [C255] ?
Return: 9.18

Enquiry: Then this binder: {Biotin-PEG4″}-CEYDEQFFTALARLRGADICEYIQA[Lys(Me3)]FQYLPGLCIEEILDNLGCS-OH (designed binder, disulfide 1-34, 20-44) [C262]
Return: 8.98

Enquiry: Same for {Biotin-PEG4″}-CDYDEQFFTALKRLRGADICEYIQA[Lys(Me3)]FQYLPGECIEEILDNLGCS-OH (designed binder, disulfide 1-34, 20-44) [C257]
Return: 9.18
